Values from paper PMC3497017

- Test system: human cathepsin L (Homo sapiens, UniProt P07711)
- Construct: gene CTSL
- Sequence (P07711 114-288): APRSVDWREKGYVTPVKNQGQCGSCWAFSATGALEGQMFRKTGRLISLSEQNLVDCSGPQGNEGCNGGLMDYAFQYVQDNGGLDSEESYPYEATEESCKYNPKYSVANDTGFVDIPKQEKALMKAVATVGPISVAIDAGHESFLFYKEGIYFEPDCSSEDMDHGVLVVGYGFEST
- Sequence (P07711 292-333): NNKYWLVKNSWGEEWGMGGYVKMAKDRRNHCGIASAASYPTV
- Protocol summary: fluorogenic Cbz-Phe-Arg-AMC hydrolysis with inner-filter correction, confirmed by HPLC-based assay
- Format: biochemical
pIC50: −log10 of the molar value.
Measurement label: pIC50

INSERT INTO results (compound, measurement_label, measurement) VALUES
  ('CC(C)=CCC/C(C)=C/CC/C(C)=C/CN1C(=O)c2cccc(O)c2Nc2c(O)cc(O)cc21 [compound 1, diazepinomicin]', 'pIC50', 4.14);
